Values from PubChem BioAssay (NCI)

For each of the molecules below, state its TGI.
Test system: SF-295 CNS
Experiment: NCI tumour cell line growth inhibition, 48 h

Reference set, count: 5
* Cc1cn(C2CC(O)C(Cn3nncc3Cn3nc(Br)c(=O)[nH]c3=O)O2)c(=O)[nH]c1=O (stereo not given) | > 100 µM
* Cc1[nH]nc(C(F)(F)F)c1Cc1sc2c(c1C(=O)N1C[C@](C)(O)CO1)c(=O)n(C)c(=O)n2C(C)C | > 100 µM
* COc1c(C(N)=O)cc(-c2ccc(Cl)cc2)cc1-c1ccc(S(N)(=O)=O)cc1 | > 25 µM
* OC(c1cc(C(F)(F)F)nc2c(Cl)cc(Cl)cc12)C1CCCCN1 (stereo not given) | 25.4 µM
* CCC(O)CCCCCCCCCCCCCCC(=O)O (stereo not given) | > 100 µM

Lab note: each molecule below needs its TGI filled in.
1. CCOC(=O)c1nc2ccccc2nc1Nc1ccc(C(=O)OC)s1
2. [N-]=[N+]=C(C(=O)CN1CCCC1=O)S(=O)(=O)c1ccccc1
3. Cc1nc(N)c(N2CCN(S(=O)(=O)N(Cc3ccccc3)Cc3ccccc3)CC2)c(=O)[nH]1

["> 100 µM", "> 100 µM", "65.8 µM"]

Lab note: each molecule below needs its TGI filled in.
1. Clc1ccc2c(NC3CCC(N4CCCCC4)CC3)ccnc2c1 (stereo not given)
2. CCCCCCc1ccc(CCCCCCCC(=O)O)o1

1: 36.8 µM; 2: > 100 µM

---

For each of the compounds below, state its GI50.
Tested on: SK-MEL-2 melanoma
Test: NCI tumour cell line growth inhibition, 48 h

* CC(=O)C1=C(C)N(Cc2ccccc2)C2(O)C=CC(=O)C3=C(O)c4ccccc4C(=O)C312 (stereo not drawn) | 20.8 µM

Lab note: each compound below needs its GI50 filled in.
1. CC1=CC2(C)/C=C(C)/C=C\CC(O)/C=C3/C=CC(=C4C(=O)OC2(CC1C)C4=O)OC3 (stereo not drawn)
2. O=C1C=CC2C3C(=O)N(c4ccccc4)C(=O)C3C1N2Cc1ccccc1 (stereo not drawn)
3. Clc1cnc(Nc2ccc(OCCN3CCCC3)cc2)nc1NCc1ccco1
4. CC(C)[C@@H](C(=O)O[C@@H]1/C=C/C(=O)O[C@@H](C)CCC/C=C/[C@@H]2C[C@H](O)C[C@H]21)N(C)C
5. Cc1ccsc1C(NC(=O)c1ccccc1)c1cc(Cl)c2cccnc2c1O (stereo not drawn)
6. COC(=O)[C@]1(C)CCC[C@@]2(C)C3=C(CC[C@H]12)C[C@@H](CC(OC(C)=O)OC(C)=O)[C@@H](C)C3

1: 2.61 µM; 2: 4.37 µM; 3: 1.8 µM; 4: 23.1 µM; 5: 0.609 µM; 6: 15.9 µM

Record request: GI50 value, item Nc1ccc(C#Cc2ccccc2C#CCCCCO)cc1
18.8 µM

---

Test system: SW-620 colon
Experiment: NCI tumour cell line growth inhibition, 48 h
For each of the compounds below, state its GI50.

* COc1cc2ncnc(Oc3ccc(NC(=O)Nc4ccc(CN5CCOCC5)c(C(F)(F)F)c4)c4ccccc34)c2cc1OC | 1.04 µM
* CCC(=O)NC1=C(Cl)C(=O)C(NC(=O)CC)=C(Cl)C1=O | 5.77 µM
* CCCCCCCCN(CCCCCCCC)CC(O)c1cc(-c2ccccc2)nc2ccc(OC)cc12 (centres undefined) | 16.5 µM
* CCN1CCN(c2ccc(NC(=O)Nc3nc4ccc(-c5ccccc5OC)cc4s3)cc2)CC1 | 1.94 µM

Lab note: each compound below needs its GI50 filled in.
1. CC(C)(C)NCC(O)c1ccccc1Cl (centres undefined)
2. CN1C(=O)N(C)C2C1NC(=S)N2/N=C/C=C/c1ccccc1[N+](=O)[O-] (centres undefined)
3. COC(=O)[C@]1(C)CCC[C@@]2(C)C3=C(CC[C@H]12)C[C@@H](CC(OC(C)=O)OC(C)=O)[C@@H](C)C3
4. CC1=CC(C)=N/C(=N/S(=O)(=O)c2cc(C)c(Cl)cc2SCc2ccccc2)NN1
5. C=CCc1c(O)c(C(=O)/C=C/c2ccc(Cl)cc2)c(OC)c2ccoc12

["> 100 µM", "0.596 µM", "11 µM", "> 100 µM", "2.56 µM"]
